Task for the reader: assign each of the following molecules its reported log10 of IC50.
Measured target: Thrombin receptor (PAR-1) (Homo sapiens)
Construct: CHRF membranes (Jones, Biochim. Biophys. Acta 1992, 1136, 272) are thawed from −70° C; endogenous in cells; host or cells: CHRF cell membranes
Sequence (P25116 22-425): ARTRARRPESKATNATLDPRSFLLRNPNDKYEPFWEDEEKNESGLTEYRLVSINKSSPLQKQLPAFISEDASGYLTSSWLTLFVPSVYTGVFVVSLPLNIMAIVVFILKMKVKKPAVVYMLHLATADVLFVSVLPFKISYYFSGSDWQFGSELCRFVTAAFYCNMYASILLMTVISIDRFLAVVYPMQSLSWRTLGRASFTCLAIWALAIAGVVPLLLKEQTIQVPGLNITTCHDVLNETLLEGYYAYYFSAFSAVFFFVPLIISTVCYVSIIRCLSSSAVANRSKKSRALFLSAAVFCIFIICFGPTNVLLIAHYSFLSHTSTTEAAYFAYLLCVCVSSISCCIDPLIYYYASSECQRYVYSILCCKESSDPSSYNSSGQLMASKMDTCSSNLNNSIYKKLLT
Assay overview: In vitro thrombin receptor binding assay
Condition context: CHRF membranes; tritiated 721-40 (Ser-pFPhe-Har-Leu-Har-Lys-Tyr-NH2) radioligand; read-out: IC50 (μM) Thr Recptr Bdg
The figures below represent log10 of IC50, where IC50 is stated in µM.

The molecule identified as NCC[C@H](NC(=O)[C@H](Cc1ccc(F)c(F)c1)NC(=O)Nc1ccc2c(CN3CCCC3)nn(Cc3c(Cl)cccc3Cl)c2c1)C(=O)N[C@H](CO)c1ccccc1 registered its log10 of IC50 at -0.49

The molecule identified as NCC[C@H](NC(=O)[C@H](Cc1ccc(F)c(F)c1)NC(=O)Nc1ccc2c(CN3CCCC3)nn(Cc3c(Cl)cccc3Cl)c2c1)C(=O)NCc1ccccc1 registered its log10 of IC50 at -1.40

The molecule identified as NCCNC(=O)[C@H](Cc1cccs1)NC(=O)[C@H](Cc1ccc(Cl)cc1)NC(=O)Nc1ccc2c(CN3CCCC3)nn(Cc3c(Cl)cccc3Cl)c2c1 registered its log10 of IC50 at 0.76

The molecule identified as NCC[C@H](NC(=O)[C@H](Cc1ccc(Cl)cc1)NC(=O)Nc1ccc2c(CN3CCCC3)nn(Cc3c(Cl)cccc3Cl)c2c1)C(=O)NCc1ccccc1 registered its log10 of IC50 at 1.30

The molecule identified as NCCNC(=O)[C@H](Cc1ccncc1)NC(=O)[C@H](Cc1ccc(F)c(F)c1)NC(=O)Nc1ccc2c(CN3CCCC3)nn(Cc3c(Cl)cccc3Cl)c2c1 registered its log10 of IC50 at -1.52

The molecule identified as C[C@@H](NC(=O)[C@H](CCN)NC(=O)[C@H](Cc1ccc(F)c(F)c1)NC(=O)Nc1ccc2c(CN3CCCC3)nn(Cc3c(Cl)cccc3Cl)c2c1)c1ccccc1 registered its log10 of IC50 at -0.82

These measurements were taken from patent US7417030B2.
